Biological target: human PD-L1 expressed on cell surface (human, UniProt Q9NZQ7 19-290)
Sequence (Q9NZQ7 19-290 limits assumed): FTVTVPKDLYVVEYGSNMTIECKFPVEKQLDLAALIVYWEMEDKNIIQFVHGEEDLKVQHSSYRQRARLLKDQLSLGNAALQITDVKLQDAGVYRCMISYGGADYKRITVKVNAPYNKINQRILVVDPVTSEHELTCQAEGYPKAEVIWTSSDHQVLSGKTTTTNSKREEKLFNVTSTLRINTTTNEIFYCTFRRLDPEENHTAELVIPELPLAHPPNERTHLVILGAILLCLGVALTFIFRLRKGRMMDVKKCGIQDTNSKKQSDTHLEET
Assay: cell-based or functional assay
outcome-measure: IC50 (nM), Promega PD-1/PD-L1 blockade reporter assay, another assay

{"binder": "33E8 (antibody, human IgG1, V domains shown) VH: QSLEESGGDLVKPGASLTLTCTASGFYFSSGYDMSWVRQAPGKGLEWIASIFTTSGSTWYANWAKGRFTISKTSSTTVTLQMTSLTDADTATYFCTKDGVGSFYMNLWGPGTLVTVSS VL: LVMTQTPASVEVAVGGTVTIKCQASQTIGSNLAWYQQRPGQPPKLLIYKAFTLASGVSSRFKGSGSGTQFTLTISGVECADAATYYCQQGATRINIDNAFGGGTEVVVK", "result": "0.38 nM"}

Each recorded value in this set is attributed to patent US20250171542A1.
